Data provenance: patent US7998989B2

Give measured melting point for each item. Keep answers brief.

// query melting point for COc1ccc(NC(=O)CC2CSC(=NC3CCCC3)N2C)cc1.Cl (stereo not drawn) ?
// result 210 to 211 °C

// query Can you look up the measured melting point of CN1C(=NC2CCCCCC2)SCC1C(=O)NCc1cccc(Cl)c1.Cl (stereo not drawn) for me?
// result 230 to 231 °C

// query So what's the measured melting point for this one? CN1C(=Nc2ccc(Cl)cc2)SCC1CC(=O)Nc1ccc(Cl)cc1.Cl (stereo not drawn)
// result 239 to 242 °C

// query Param item = Cc1ccc(NC(=O)CC2CSC(=NC3CCCCC3)N2C)cc1F.Cl (stereo not drawn) ; retrieve measured melting point.
// result 210 to 212 °C

// query Name the reported melting point value associated with the molecule CC1SC(=NC2CCCCC2)N(C)C1CC(=O)Nc1cc([N+](=O)[O-])ccc1F (stereo not drawn)
// result 249 to 251 °C

// query Query: melting point; subject: CC1SC(=NC2CCCCCC2)N(C)C1CC(=O)Nc1ccc(F)cc1.Cl (stereo not drawn)
// result 229 to 231 °C

// query Using the record for CN1C(=Nc2cccc(F)c2)SCC1CC(=O)Nc1ccc(Cl)cc1F.Cl (stereo not drawn) , report its melting point.
// result 229 to 231 °C

// query Can you look up the measured melting point of CC1SC(=NC2CCCCCC2)N(C)C1CC(=O)Nc1ccccc1.Cl (stereo not drawn) for me?
// result 236 to 238 °C

// query Could you share which melting point value was measured for CC1SC(=NC2CCCCCC2)N(C)C1CC(=O)Nc1cc(C(F)(F)F)cc(C(F)(F)F)c1.Cl (stereo not drawn) ?
// result 217 to 219 °C
